# Target desc: rP2X2/3 receptors (Rattus norvegicus, UniProt P49653+P49654)
# Sequence (P49654 whole entry): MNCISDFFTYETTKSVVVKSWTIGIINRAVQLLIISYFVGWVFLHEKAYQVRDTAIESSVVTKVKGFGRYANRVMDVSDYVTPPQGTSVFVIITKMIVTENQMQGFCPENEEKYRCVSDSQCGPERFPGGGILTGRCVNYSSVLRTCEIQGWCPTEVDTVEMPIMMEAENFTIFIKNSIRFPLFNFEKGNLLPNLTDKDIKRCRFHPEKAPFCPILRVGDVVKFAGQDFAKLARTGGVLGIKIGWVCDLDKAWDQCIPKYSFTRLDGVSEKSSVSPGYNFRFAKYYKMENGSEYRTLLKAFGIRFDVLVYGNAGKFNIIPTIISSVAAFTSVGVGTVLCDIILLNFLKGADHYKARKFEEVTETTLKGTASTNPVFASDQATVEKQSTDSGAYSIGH
# Sequence (P49653 whole entry): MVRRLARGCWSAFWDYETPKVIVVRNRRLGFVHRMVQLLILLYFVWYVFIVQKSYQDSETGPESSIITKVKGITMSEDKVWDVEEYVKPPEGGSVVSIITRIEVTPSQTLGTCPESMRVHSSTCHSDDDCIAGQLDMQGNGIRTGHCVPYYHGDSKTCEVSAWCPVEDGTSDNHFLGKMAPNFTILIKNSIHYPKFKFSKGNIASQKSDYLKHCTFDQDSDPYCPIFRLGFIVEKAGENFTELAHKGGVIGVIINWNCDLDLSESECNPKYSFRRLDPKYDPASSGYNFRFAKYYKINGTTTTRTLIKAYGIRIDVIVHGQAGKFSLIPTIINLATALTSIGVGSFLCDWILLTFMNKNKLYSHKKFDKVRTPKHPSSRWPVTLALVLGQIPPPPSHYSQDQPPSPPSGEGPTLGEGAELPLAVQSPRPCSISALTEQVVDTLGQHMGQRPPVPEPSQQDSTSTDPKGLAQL
# Assay procedure: FLIPR calcium flux assay, recombinant cells
# Experimental: Cells were maintained in Dulbecco’s Modified Eagle Medium (DMEM) media (Sigma) supplemented with 10% fetal bovine serum (FBS) (Sigma) in a humidified incubator with 5% CO2 at 37 °C. P2X receptor-induced changes in intracellular calcium levels were monitored using the calcium-chelating dye, Fluo-4AM (Molecular Probes), quantitated with a fluorescence imaging plate reader (FLEX/FLIPR station; Molecular Devices, Sunnyvale, CA, USA). […]
pIC50: −log10 of the molar value.

Smiles repr	pIC50
Cc1cnc(-c2cc(O[C@@H]3CCOC3)cc(C(=O)N[C@H](C)c3cnc(C(F)(F)F)nc3)c2)s1	7.64

----------
# Assay procedure: Half-life in humans
# Condition label: human, in vivo; data not shown

Smiles repr	half-life
Cc1cnc(-c2cc(O[C@@H]3CCOC3)cc(C(=O)N[C@H](C)c3cnc(C(F)(F)F)nc3)c2)s1	> 24 h

----------
# Target desc: homotrimeric hP2X7 receptor (Homo sapiens, UniProt Q99572)
# Sequence (Q99572 whole entry): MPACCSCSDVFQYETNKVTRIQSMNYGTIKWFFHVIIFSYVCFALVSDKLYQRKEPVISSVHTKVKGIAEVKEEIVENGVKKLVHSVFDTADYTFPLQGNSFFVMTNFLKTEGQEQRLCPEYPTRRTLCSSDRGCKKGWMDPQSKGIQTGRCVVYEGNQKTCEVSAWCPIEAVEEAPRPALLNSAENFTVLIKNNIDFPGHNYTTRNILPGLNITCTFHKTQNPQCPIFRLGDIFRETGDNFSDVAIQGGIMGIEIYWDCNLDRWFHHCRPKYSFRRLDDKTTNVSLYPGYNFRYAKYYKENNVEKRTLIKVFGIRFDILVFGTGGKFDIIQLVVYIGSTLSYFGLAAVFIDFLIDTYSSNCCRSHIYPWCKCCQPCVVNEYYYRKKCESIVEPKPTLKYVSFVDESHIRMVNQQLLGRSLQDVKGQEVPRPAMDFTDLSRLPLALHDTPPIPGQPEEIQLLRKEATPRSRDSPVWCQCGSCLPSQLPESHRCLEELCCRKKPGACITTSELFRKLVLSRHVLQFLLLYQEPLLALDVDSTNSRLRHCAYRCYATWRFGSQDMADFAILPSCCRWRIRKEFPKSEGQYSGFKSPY
# Assay procedure: Recombinant cell line selectivity assay

Compound	IC50 (µM)
Cc1cnc(-c2cc(O[C@@H]3CCOC3)cc(C(=O)N[C@H](C)c3cnc(C(F)(F)F)nc3)c2)s1 [eliapixant]	50

Every entry's value here was drawn from paper PMC8494816.
